# TARGET_ENTITY: Cytochrome P450 2C9 (Homo sapiens)
# Sequence (P11712 whole entry): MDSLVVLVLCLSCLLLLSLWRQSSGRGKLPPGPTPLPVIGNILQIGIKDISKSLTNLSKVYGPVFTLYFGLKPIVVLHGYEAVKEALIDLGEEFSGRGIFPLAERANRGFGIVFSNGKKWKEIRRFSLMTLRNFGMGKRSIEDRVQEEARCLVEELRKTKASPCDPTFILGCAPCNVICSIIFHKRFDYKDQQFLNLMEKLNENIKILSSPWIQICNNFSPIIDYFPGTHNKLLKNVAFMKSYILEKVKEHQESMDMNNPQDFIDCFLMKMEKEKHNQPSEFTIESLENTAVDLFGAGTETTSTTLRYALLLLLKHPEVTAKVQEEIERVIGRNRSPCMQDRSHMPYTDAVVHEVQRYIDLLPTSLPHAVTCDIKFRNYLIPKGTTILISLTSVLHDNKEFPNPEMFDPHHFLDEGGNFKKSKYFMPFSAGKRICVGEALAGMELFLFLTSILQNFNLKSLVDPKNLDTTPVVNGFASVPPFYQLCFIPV
QUANTITY: IC50

In: // fetch IC50; item: Cc1cn([C@H]2CCCN(S(=O)(=O)c3ccc(O)c(Oc4cccc(Cl)c4)c3)C2)c(=O)[nH]c1=O ; system: Cytochrome P450 2C9 (Homo sapiens)
Out: > 20 µM

====

# ASSAY_NOTES: Cytotoxicity against human A549 cells
# Assay type: cell-based
# TEST_PARAMETERS: read-out: MIC
QUANTITY: MCC

In: Name the recorded MCC of the item Cc1cn([C@H]2CCCN(S(=O)(=O)c3ccc(O)c(Oc4cccc(Cl)c4)c3)C2)c(=O)[nH]c1=O in your answer.
Out: > 64 µg/mL
